Tested on: H1048 cells
Assay: SRB assay, MMS sensitivity of H1048
Format: cell-based
Settings: Homo sapiens, NCI-H1048, 72 h

{"columns": ["compound", "IC50 [µM]"],
 "data": [
  ["COS(C)(=O)=O [MMS, Methylmethanesulfonate]", 9]
]}
